All values here come from patent US20060058231A1.

# TGT: T1, ActRIIa receptor-Fc fusion (UniProt P27037 20-134, limits assumed)
# T1 construct: BMP receptor-Fc fusion used at 5 ug/mL
# PROTOCOL_DETAILS: ELISA-like plate assay, captured BMP-7 from conditioned media, receptor-Fc detection
PROPERTY_LABEL: ActRIIa binding (relative to wild type = 1.0)

Prompt: Please look up its ActRIIa binding (relative to wild type = 1.0): BMP-7 variant I94Q (ligand, In conditioned media; numbering on mature BMP-7) STGGKQRSQNRSKTPKNQEALRMASVAENSSSDQRQACKKHELYVSFRDLGWQDWIIAPEGYAAYYCEGECAFPLNSYMNATNHAIVQTLVHFQNPETVPKPCCAPTQLNAISVLYFDDSSNVILKKYRNMVVRACGCH
Completion: 1.1 relative to wild type

Prompt: What does the record list as ActRIIa binding (relative to wild type = 1.0) for BMP-7 variant R129N (ligand, In conditioned media; numbering on mature BMP-7) STGGKQRSQNRSKTPKNQEALRMASVAENSSSDQRQACKKHELYVSFRDLGWQDWIIAPEGYAAYYCEGECAFPLNSYMNATNHAIVQTLVHFINPETVPKPCCAPTQLNAISVLYFDDSSNVILKKYNNMVVRACGCH ?
Completion: 1.1 relative to wild type

Prompt: Recorded ActRIIa binding (relative to wild type = 1.0) for BMP-7 variant R48H (ligand, In conditioned media; numbering on mature BMP-7) STGGKQRSQNRSKTPKNQEALRMASVAENSSSDQRQACKKHELYVSFHDLGWQDWIIAPEGYAAYYCEGECAFPLNSYMNATNHAIVQTLVHFINPETVPKPCCAPTQLNAISVLYFDDSSNVILKKYRNMVVRACGCH , please?
Completion: 1.02 relative to wild type

Prompt: Query: ActRIIa binding (relative to wild type = 1.0); subject: BMP-7 variant F93T (ligand, In conditioned media; numbering on mature BMP-7) STGGKQRSQNRSKTPKNQEALRMASVAENSSSDQRQACKKHELYVSFRDLGWQDWIIAPEGYAAYYCEGECAFPLNSYMNATNHAIVQTLVHTINPETVPKPCCAPTQLNAISVLYFDDSSNVILKKYRNMVVRACGCH
Completion: 0.79 relative to wild type

Prompt: Name the recorded ActRIIa binding (relative to wild type = 1.0) for BMP-7 variant I57L (ligand, In conditioned media; numbering on mature BMP-7) STGGKQRSQNRSKTPKNQEALRMASVAENSSSDQRQACKKHELYVSFRDLGWQDWILAPEGYAAYYCEGECAFPLNSYMNATNHAIVQTLVHFINPETVPKPCCAPTQLNAISVLYFDDSSNVILKKYRNMVVRACGCH .
Completion: 0.9 relative to wild type

Prompt: ActRIIa binding (relative to wild type = 1.0) lookup needed for BMP-7 variant F117K (ligand, In conditioned media; numbering on mature BMP-7) STGGKQRSQNRSKTPKNQEALRMASVAENSSSDQRQACKKHELYVSFRDLGWQDWIIAPEGYAAYYCEGECAFPLNSYMNATNHAIVQTLVHFINPETVPKPCCAPTQLNAISVLYKDDSSNVILKKYRNMVVRACGCH , thanks.
Completion: 0.34 relative to wild type

Prompt: I have this binder here, BMP-7 variant S77T (ligand, In conditioned media; numbering on mature BMP-7) STGGKQRSQNRSKTPKNQEALRMASVAENSSSDQRQACKKHELYVSFRDLGWQDWIIAPEGYAAYYCEGECAFPLNTYMNATNHAIVQTLVHFINPETVPKPCCAPTQLNAISVLYFDDSSNVILKKYRNMVVRACGCH , and I need its recorded ActRIIa binding (relative to wild type = 1.0).
Completion: 1.15 relative to wild type

Prompt: ActRIIa binding (relative to wild type = 1.0) lookup needed for BMP-7 variant I86D (ligand, In conditioned media; numbering on mature BMP-7) STGGKQRSQNRSKTPKNQEALRMASVAENSSSDQRQACKKHELYVSFRDLGWQDWIIAPEGYAAYYCEGECAFPLNSYMNATNHADVQTLVHFINPETVPKPCCAPTQLNAISVLYFDDSSNVILKKYRNMVVRACGCH , thanks.
Completion: 1.09 relative to wild type

Prompt: What value of measured ActRIIa binding (relative to wild type = 1.0) is listed for BMP-7 variant Y78P (ligand, In conditioned media; numbering on mature BMP-7) STGGKQRSQNRSKTPKNQEALRMASVAENSSSDQRQACKKHELYVSFRDLGWQDWIIAPEGYAAYYCEGECAFPLNSPMNATNHAIVQTLVHFINPETVPKPCCAPTQLNAISVLYFDDSSNVILKKYRNMVVRACGCH ?
Completion: 0.92 relative to wild type

Prompt: I am curious: what ActRIIa binding (relative to wild type = 1.0) value has been reported for BMP-7 variant V123G (ligand, In conditioned media; numbering on mature BMP-7) STGGKQRSQNRSKTPKNQEALRMASVAENSSSDQRQACKKHELYVSFRDLGWQDWIIAPEGYAAYYCEGECAFPLNSYMNATNHAIVQTLVHFINPETVPKPCCAPTQLNAISVLYFDDSSNGILKKYRNMVVRACGCH ?
Completion: 0.53 relative to wild type

Prompt: So what's the measured ActRIIa binding (relative to wild type = 1.0) for this one? BMP-7 variant Y78D (ligand, In conditioned media; numbering on mature BMP-7) STGGKQRSQNRSKTPKNQEALRMASVAENSSSDQRQACKKHELYVSFRDLGWQDWIIAPEGYAAYYCEGECAFPLNSDMNATNHAIVQTLVHFINPETVPKPCCAPTQLNAISVLYFDDSSNVILKKYRNMVVRACGCH
Completion: 1.93 relative to wild type

Prompt: Find the recorded ActRIIa binding (relative to wild type = 1.0) belonging to BMP-7 variant I86K (ligand, In conditioned media; numbering on mature BMP-7) STGGKQRSQNRSKTPKNQEALRMASVAENSSSDQRQACKKHELYVSFRDLGWQDWIIAPEGYAAYYCEGECAFPLNSYMNATNHAKVQTLVHFINPETVPKPCCAPTQLNAISVLYFDDSSNVILKKYRNMVVRACGCH and report it.
Completion: 0.97 relative to wild type

Prompt: Look up ActRIIa binding (relative to wild type = 1.0) for this binder: BMP-7 variant K39A (ligand, In conditioned media; numbering on mature BMP-7) STGGKQRSQNRSKTPKNQEALRMASVAENSSSDQRQACAKHELYVSFRDLGWQDWIIAPEGYAAYYCEGECAFPLNSYMNATNHAIVQTLVHFINPETVPKPCCAPTQLNAISVLYFDDSSNVILKKYRNMVVRACGCH
Completion: 1.06 relative to wild type

Prompt: Look at this binder and give its reported ActRIIa binding (relative to wild type = 1.0). BMP-7 variant W52A (ligand, In conditioned media; numbering on mature BMP-7) STGGKQRSQNRSKTPKNQEALRMASVAENSSSDQRQACKKHELYVSFRDLGAQDWIIAPEGYAAYYCEGECAFPLNSYMNATNHAIVQTLVHFINPETVPKPCCAPTQLNAISVLYFDDSSNVILKKYRNMVVRACGCH
Completion: 1.69 relative to wild type
